Below, each of the compounds is paired with its reported inhibition value.
molecular target: UniProt:P35916; assay: Inhibition of VEGFR3 using Tyr 04 peptide as substrate at 1 uM after 60 mins by Z'-LYTE assay
Sequence (P35916 whole entry): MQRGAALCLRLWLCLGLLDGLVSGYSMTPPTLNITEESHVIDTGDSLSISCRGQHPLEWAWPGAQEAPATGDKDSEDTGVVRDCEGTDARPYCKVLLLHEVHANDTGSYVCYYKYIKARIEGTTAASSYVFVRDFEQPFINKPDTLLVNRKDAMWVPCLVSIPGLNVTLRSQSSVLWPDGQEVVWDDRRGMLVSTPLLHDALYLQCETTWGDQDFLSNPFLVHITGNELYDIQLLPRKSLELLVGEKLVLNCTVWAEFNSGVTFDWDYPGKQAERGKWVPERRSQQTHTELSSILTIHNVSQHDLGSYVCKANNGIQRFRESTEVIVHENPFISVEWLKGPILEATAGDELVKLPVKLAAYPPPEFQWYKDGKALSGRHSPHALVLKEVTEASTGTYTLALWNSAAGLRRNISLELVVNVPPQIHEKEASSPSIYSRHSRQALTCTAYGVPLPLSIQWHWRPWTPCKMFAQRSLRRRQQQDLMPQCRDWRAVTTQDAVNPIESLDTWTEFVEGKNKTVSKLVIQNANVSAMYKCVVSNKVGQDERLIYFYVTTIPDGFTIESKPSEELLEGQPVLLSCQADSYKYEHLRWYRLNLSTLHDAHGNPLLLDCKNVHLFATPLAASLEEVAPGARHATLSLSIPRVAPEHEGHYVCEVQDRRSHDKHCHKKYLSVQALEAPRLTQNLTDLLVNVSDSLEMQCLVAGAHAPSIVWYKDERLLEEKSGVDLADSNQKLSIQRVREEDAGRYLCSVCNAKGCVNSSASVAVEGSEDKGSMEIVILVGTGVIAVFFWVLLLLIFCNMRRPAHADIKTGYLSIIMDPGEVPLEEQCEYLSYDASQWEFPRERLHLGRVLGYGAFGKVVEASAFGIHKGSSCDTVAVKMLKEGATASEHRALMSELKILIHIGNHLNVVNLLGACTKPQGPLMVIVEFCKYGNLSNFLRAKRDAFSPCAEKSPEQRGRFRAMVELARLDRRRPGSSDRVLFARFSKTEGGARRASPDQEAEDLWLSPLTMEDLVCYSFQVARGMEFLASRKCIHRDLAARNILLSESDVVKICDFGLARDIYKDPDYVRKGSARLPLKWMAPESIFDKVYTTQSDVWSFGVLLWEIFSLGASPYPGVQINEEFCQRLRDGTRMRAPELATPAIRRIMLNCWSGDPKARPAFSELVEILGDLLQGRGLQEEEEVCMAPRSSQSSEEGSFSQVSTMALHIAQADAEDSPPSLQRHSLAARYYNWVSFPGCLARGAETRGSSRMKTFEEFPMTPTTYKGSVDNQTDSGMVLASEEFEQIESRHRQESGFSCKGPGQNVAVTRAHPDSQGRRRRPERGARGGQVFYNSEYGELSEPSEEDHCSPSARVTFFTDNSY

Worked set:
Enquiry: Request - read-out inhibition | tested on UniProt:P35916 | compound Nc1ccccc1CNc1ccsc1C(=O)Nc1ccc(OC(F)(F)F)cc1
Return: < 40%

Enquiry: Any idea what inhibition came out for O=C(Nc1ccc(OC(F)(F)F)cc1)c1sccc1NCc1ccc([N+](=O)[O-])cc1 on UniProt:P35916?
Return: < 40%

Enquiry: API: value(readout=inhibition, system=UniProt:P35916) for record CC(=O)Nc1ccc(CNc2ccsc2C(=O)Nc2ccc(OC(F)(F)F)cc2)cc1
Return: < 40%

Enquiry: What measured inhibition is associated with Nc1cccc(CNc2ccsc2C(=O)Nc2ccc(OC(F)(F)F)cc2)c1 on UniProt:P35916?
Return: < 40%

Enquiry: UniProt:P35916 / inhibition / Nc1ccc(CNc2ccsc2C(=O)Nc2ccc(OC(F)(F)F)cc2)cc1 : value?
Return: < 40%

New cases:
Enquiry: Query the reported inhibition for UniProt:P35916; item: CC(=O)Nc1ccccc1CNc1ccsc1C(=O)Nc1ccc(OC(F)(F)F)cc1
Return: < 40%

Enquiry: Any idea what inhibition came out for O=C(Nc1ccc(OC(F)(F)F)cc1)c1sccc1NCc1ccc(N=C=S)cc1 on UniProt:P35916?
Return: < 40%

Enquiry: Find the measured inhibition: item O=C(Nc1ccc(OC(F)(F)F)cc1)c1sccc1NCc1ccccc1[N+](=O)[O-] , target or system UniProt:P35916.
Return: < 40%

----------
Listing of recorded inhibition by entry.
target: Platelet-derived growth factor receptor beta (Homo sapiens); assay: Inhibition of PDGFRbeta using Tyr 04 peptide as substrate at 10 uM after 60 mins by Z'-LYTE assay

Illustrative cases are given below, each with its answer.
Enquiry: Can you look up inhibition on Platelet-derived growth factor receptor beta (Homo sapiens) for O=C(Nc1ccc(OC(F)(F)F)cc1)c1sccc1NCc1ccc(N=C=S)cc1 ?
Return: < 40%

Enquiry: Request body: readout inhibition, system Platelet-derived growth factor receptor beta (Homo sapiens), query O=C(Nc1ccc(OC(F)(F)F)cc1)c1sccc1NCc1ccccc1N=C=S . Return the value.
Return: < 40%

Enquiry: Request - read-out inhibition | tested on Platelet-derived growth factor receptor beta (Homo sapiens) | compound Nc1cnccc1CNc1ccsc1C(=O)Nc1ccc(OC(F)(F)F)cc1
Return: 47%

More entries:
Enquiry: Please state recorded inhibition (tested on Platelet-derived growth factor receptor beta (Homo sapiens)) of O=C(Nc1ccc(OC(F)(F)F)cc1)c1sccc1NCc1cccc([N+](=O)[O-])c1
Return: < 40%

Enquiry: Checklist item: inhibition tested on Platelet-derived growth factor receptor beta (Homo sapiens), entry Nc1ccccc1CNc1ccsc1C(=O)Nc1ccc(OC(F)(F)F)cc1 , value?
Return: < 40%

----------
The following molecules are shown together with reported inhibition values.
target: UniProtKB P35916; experiment: Inhibition of VEGFR3 using Tyr 04 peptide as substrate at 1 uM after 60 mins by Z'-LYTE assay

# example entries with known answers
Enquiry: Name the recorded inhibition for O=C(Nc1ccc(OC(F)(F)F)cc1)c1sccc1NCc1cccc(N=C=S)c1 .
Return: < 40%

Enquiry: Would you kindly share the measured inhibition for O=C(Nc1ccc(OC(F)(F)F)cc1)c1sccc1NCc1cccc([N+](=O)[O-])c1 ?
Return: < 40%

Continuing:
Enquiry: Would you kindly share the measured inhibition for O=C(Nc1ccc(OC(F)(F)F)cc1)c1sccc1NCc1ccccc1N=C=S ?
Return: < 40%

Source: ChEMBL document CHEMBL1914443
